These measurements were taken from PubChem BioAssay.

Protocol summary: P. aeruginosa biofilm formation inhibitors, primary screen, strain PAO1, LB-PBS medium, absorbance 600 nm (AID 1176); note: test concentration not given here
Experimental conditions: P. aeruginosa PAO1 growth/biofilm, A600, 12 h; higher = more signal
So I've got a bunch of molecules here, and I need their z-score values.
Numbers only.

Answered cases to consult:
[
  {
    "Molecule": "C=C(COC)/C(=C/C[C@@H](OC(C)=O)c1ccc(OCCO)cc1)c1cnc2ccccc2c1",
    "z-score": -0.128
  },
  {
    "Molecule": "O=C1O[C@@H](c2ccccc2)[C@@H](c2ccccc2)N2[C@@H](c3ccccc3OCCO)[C@]3(C(=O)Nc4ccc(C#CC5=CCCCC5)cc43)[C@@H](C(=O)N3CCCCCCC3)[C@H]12",
    "z-score": 1.63
  },
  {
    "Molecule": "COC(=O)C[C@H]1O[C@]2(C(=O)N(C)c3ccccc32)[C@@H](C)[C@@H]1[Si](C)(C)F",
    "z-score": 0.908
  },
  {
    "Molecule": "COc1ccc([C@H]2OC[C@@H]3C[C@@H](Cc4ccccc4)C(=O)N32)cc1",
    "z-score": -0.0513
  },
  {
    "Molecule": "CCS[C@H]1[C@@H](C(=O)O)[C@H](c2ccc(C)cc2)N(S(=O)(=O)c2ccc(C)cc2)[C@@H]1CC",
    "z-score": 0.257
  }
]

For every item below, please supply its z-score.
1. CCCC[C@@H]1C[C@H]1[C@@H](NC(=O)c1ccco1)c1ccc(-c2ccccc2)cc1
2. O=C(NCCO)C1=C[C@H](Oc2ccccc2I)[C@@H](O)[C@H](N(Cc2ccco2)C(=O)Cc2ccccc2)C1
3. C=C(C)[C@@H]1CC=C(C(O)C2C=CC3C(=O)N(c4ccccc4)C(=O)C3N2Nc2ccccc2)CC1 (stereo not given in full)
4. CC(=O)NCCCC[C@@H]1NC(=O)[C@@H]2C[C@H](C(=O)NCCCCCNC(=O)CS)[C@H](c3cccc(OCCO)c3)N2C1=O
5. COC(=O)C(CC#Cc1ccc2c(c1)[C@]1(C(=O)N2)[C@H](c2ccc(OCCO)cc2)N2[C@H](c3ccccc3)[C@H](c3ccccc3)OC(=O)[C@H]2[C@@H]1C(=O)Nc1nc2ccccc2s1)C(=O)OC
6. CCCCCN1CC=CC23O[C@@H]4C=CCCOC(=O)C4[C@H]2C(=O)N(CCCCCO)[C@@H]3C1=O (stereo not given in full)

Reply:
1: 2.16; 2: -0.848; 3: 1.6; 4: 0.879; 5: 2.98; 6: -0.304

For every item below, please supply its z-score.
1. CC(C)NC(=O)[C@@H]1c2ccccc2C(=O)N(C2Cc3ccccc3C2)[C@H]1c1ccc(CO)cc1
2. CN1C(=O)C2C=CC(C(O)c3ccccc3)N(N(c3ccccc3)c3ccccc3)C2C1=O (stereo not given)
3. Cc1ccc(S[C@]2(C(=O)O)CC(=O)N(C(C)C)[C@@H]2c2ccc(CO)cc2I)cc1

Reply:
1: -0.0528; 2: 0.226; 3: 0.953

Task item: Fill in the blank: the reported z-score of C=CCNC(=O)[C@H]1[C@@H]2C(=O)O[C@@H](c3ccccc3)[C@@H](c3ccccc3)N2[C@@H](c2ccccc2OCCO)[C@]12C(=O)Nc1ccc(C#CCCO)cc12 is ____.
Reply: 0.462
